- Subject Of Test: T1, human RANTES (human, UniProt P13501 24-91)
- T1 construct: also called hRANTES
- T1 sequence (looked up): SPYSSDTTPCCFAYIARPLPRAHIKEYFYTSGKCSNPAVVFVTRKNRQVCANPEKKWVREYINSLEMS
- Experimental Protocol: ELISA, coated antigen
Assay Readout: ELISA OD (OD450)
Numbers only; they are read as OD450.

Worked examples follow.
INSERT INTO assay_data (binder, assay_readout, experimental_result) VALUES
  ('anti-MCP-1 mAb 1.11.1 (antibody, V domains shown) VH: QVQVVQSGAEVKNPGASVKVSCKVSGSTLTELSMHWVRQAPGKGLEWMGGFDPEDGETIYAQKFQGRVTMTEDTSTDTVYMELSSLRSEDTAVYYCATNDFWSGYFDYWGQGTLVTVSS VL: DIVMTQSPDSLAVSLGERATITCKSSQTVLYSSNNKNYLVWYQQKSGQPPKLLIHWASIRESGVPDRFSGSGSGTDFTLTISSLQAEDVAVYYCQQYYSSPWTFGQGTKVEIKR', 'ELISA OD', 0.042),
  ('anti-MCP-1 mAb 3.16.1 (antibody, V domains shown) VH: QVQLVQSGAEVKKPGASVKVSCKVSGYTLTDLSMHWVRQAPGKGLEWMGGFDPEDGETIYAQKFQGRVTMTEDTSSDTAYMELSSLRSEDTAVYYCATHEFWSGYFDYWGQGTLVTVSS VL: DIVMTQSPDSLAVSLGERATINCKSSQSVLFSSNNKSYLTWYQQKPGQPPKLLIFWASIRESGVPDRISGSGSGTDLTLTISSLQAEDAAVYYCQQYYSSPWTFGQGTKVEIKR', 'ELISA OD', 0.042),
  ('anti-MCP-1 mAb 5.3.1 (antibody, V domains shown) VH: QVQLVQSGAEVKKPGASVKVSCKVSGYTLSELSMHWVRQAPGKGLEWMGGFDPEDGETIYAQKFQGRVTMTEDTSTDTAYMELSSLRSEDTAVFYCATKREYSGYFDYWGQGTLVTVSS VL: DIVMTQSPDSLAVSLGERATINCKSSQSVLYSSNSKNYLAWFQQKPGQPPKLLIYWASTRESGVPDRFSGSGSGTDFTLTISRLQAEDVAVYSCQQYFITPWTFGQGTKVELKR', 'ELISA OD', 0.045),
  ('anti-MCP-1 mAb 1.8.1 (antibody, V domains shown) VH: QVQLVQSGAEVKKPGASVKVSCKVSGHIFTELSIHWVRQAPGKGLEWMGGFDPEDGETIYAQKFQGRVTMTEDTSTDTVYMELSSLRSEDTAVYYCATNDFWSGYFDYWGQGTLVTVSS VL: DIVMTQSPGSLAVSLGERATINCKSSQSILFRSNNKNYLTWYQQKPGQPPKLLIYWASIRESGVPDRFSGSGSGSNFTLTITSLQAEDVAIYYCQQYYSSPWTFGQGTKVEIKR', 'ELISA OD', 0.045),
  ('anti-MCP-1 mAb 3.2 (antibody, V domains shown, also called 3.2 (neat)) VH: QVQLVQSGAEVKKPGASVKVSCKVSGYTLSELSMHWVRQAPGKGLEWMGGFDPEDGEIIHAQKFQGRVTMTEDTSTDTAYMELSSLRSEDTAVYYCATGDFWSGYYLDWWGQGTLVTVSS VL: EIVMMQSPATLSVSPGERATLSCRASQSVNSNLAWYQQKPGQAPRLLINGASTRATGIPARFSGSGSGTEFTLTISSLQSEDFAIYYCQQYNDWPTFTFGGGTKVEINR', 'ELISA OD', 0.043),
  ('anti-MCP-1 mAb 1.13.1 (antibody, V domains shown) VH: QVQLVQSGAEVKKPGASVKVSCKVSGHTLTELSMHWVRQAPGKGLEWMGGFDPEDDETIYAQKFQDRVTMTEDTSTDTAYMELSSLRSEDTAVYYCATNDFWSGYFDCWGQGTLVTVSS VL: DIVLTQSPDSLAVCLGERATINCKSSQSVLYSPNNKNFLVWYQQRPGQPPKLLIYWASTRESGVPDRFSGSGSGTDFTLTISSLQAEDVAVYYCQQYYSSPWTFGQGTKVEIKR', 'ELISA OD', 0.046),
  ('anti-MCP-1 mAb 3.10.1 (antibody, V domains shown) VH: QVQLVQSGAEVKKPGASVKVSCKVSGYTLTELSMHWVRQAPGKGLEWMGGFDPEDGETIYAQKFQGRVMMTEDTSTDTAFMDLSSLRSEDTAVYYCATDDMLTPHYLYFGMDVWGQGTTVTVSS VL: DIQMTQSPSSLSASVGDRVTITCRASQGIRNDLGWYQQKPGKAPKRLIYATSSLQSGVPSRFSGSGSGTEFTLTISSLQPEDFATYYCLQHNTYPFTFGPGTKVDIKR', 'ELISA OD', 0.04),
  ('anti-MCP-1 mAb 1.2.1 (antibody, V domains shown) VH: QVQLVQSGAEVKKPGASVKVSCKVSGYTFTELSMHWVRQAPGKGLEWMGGFDPEDGETSYAQKFRGRVTMTEDTSTDTAHMELSSLRSEDTAVYYCATNDFWSGYFDYWGQGTLVTVSS VL: DIQMTQSPSSVSASVGDRVTITCRASQGIDIYLAWYQQKPGKAPKLLINAASSLQNGVPSRFGGSGSGTDFTLTISGLQPEDFATYYCQLTYFFPWTFGQGTKVEIKR', 'ELISA OD', 0.04),
  ('anti-MCP-1 mAb 3.5.1 (antibody, V domains shown) VH: QVQLVQSGAEVKKPGASVKVSCKVSGYTLSELSMHWVRQAPGKGLEWMGGFDPEDDETIYAQKFQGRVTMTEDTSTDTAFMELSSLRSEDTAVYYCATHDFWSGYFHYWGQGTLVTVSS VL: DIVMTQSPDSLAVSLGERATINCKSSQSVLYSSDNKSYLVWYQQKPGQPPKVLIYWASIRESGVPDRFSGSGSGTDFTLTISSLQAEDVAVYYCQQYYTSPWTFGQGTKVEIKR', 'ELISA OD', 0.044);

// below: ELISA OD requested for another binder
# return recorded ELISA OD for entry anti-MCP-1 mAb 5.1 (antibody, V domains shown) VH: EQSGGGVVQPGRSLRLSCAASGFTFSSYGMHWVRQAPGKGLEWVAVIWYDGNNKYYADSVKGRFTISRDTSKNTLYLQMNSLRAEDTAVYYCARDSSSYYYYGMDVWGQGTTVTVSS VL: NFMLTQPHSVSESPGKTVTISCTRSSGSIASNYVQWFQQRPGSSPTTVIYEDDQRPSGVPDRFCGSIDSSSNSASLTISGLRTEDEADYYCQSYDSSNHVVFGGGTKLTVLG
0.043
